These entries and their values trace back to patent US10471046B2.

MIC for assorted molecules
- Test system: S. aureus
- assay comment: Minimum inhibitory concentrations (MICs) for S. aureus of exemplary compounds (Table 2)
- Type: cell-based
- recorded conditions: Staphylococcus aureus, minimum inhibitory concentrations for S. aureus; read-out: MICs
Please state the number and follow it with the unit.

State its MIC for this molecule: CC(=O)NC[C@H]1CN(c2ccc(-c3ccc(CNCc4nc5ccccc5s4)cc3)c(F)c2)C(=O)O1 [Compound 4121]
0.5 µg/mL

State its MIC for this molecule: CC(=O)NC[C@H]1CN(c2ccc(-c3ccc(CNC(=O)C4CCC(=O)N4)cc3)c(F)c2)C(=O)O1 (stereo partly drawn) [Compound 4289]
8 µg/mL

State its MIC for this molecule: CC(=O)NC[C@H]1CN(c2ccc(-c3ccc(CNCCc4ccccn4)cc3)c(F)c2)C(=O)O1 [Compound 4087]
4 µg/mL
